Can you tell me OD450 for the items I'm about to list?
# system name: T1, recombinant human CD40-Fc (human, UniProt P25942 21-193)
# T1 construct: also called rh-CD40-Fc; CD40-hFc
# T1 sequence (P25942 21-193): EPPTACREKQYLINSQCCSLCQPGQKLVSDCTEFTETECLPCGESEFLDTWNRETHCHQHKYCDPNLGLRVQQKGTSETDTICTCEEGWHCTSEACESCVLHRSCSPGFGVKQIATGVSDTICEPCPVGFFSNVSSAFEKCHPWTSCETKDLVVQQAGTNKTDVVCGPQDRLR
# protocol notes: ELISA, CD40-Fc coated, VHH at 1.6 nM

IN: Requested read-out: OD450. Entry: pgDD40-HZ-47 (VHH, not shown: small tags and cut ends) VHH: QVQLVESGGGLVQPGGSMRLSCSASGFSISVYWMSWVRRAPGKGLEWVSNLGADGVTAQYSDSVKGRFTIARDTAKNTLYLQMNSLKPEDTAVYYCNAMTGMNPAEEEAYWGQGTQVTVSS
OUT: 0.056

IN: Now consider pgDD40-SZ-1 (VHH, not shown: small tags and cut ends) VHH: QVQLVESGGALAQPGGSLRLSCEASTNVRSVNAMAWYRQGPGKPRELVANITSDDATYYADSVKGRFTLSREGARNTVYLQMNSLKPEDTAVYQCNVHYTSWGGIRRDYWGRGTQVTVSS .
OUT: 0.866

IN: Now consider pgDD40-HZ-24 (VHH, not shown: small tags and cut ends, also called pgDD40-HG-24) VHH: EVQLVESGGGSVQAGGSLRLSCAASLSTFSNYRMGWFRRAPGKERELVARIEPHGVVDYGDSVKGRFTISRDNAKNTVTVYLHMNSLKPEDTAVYYCNALRLISGRYDPLFSSWGQGTQVTVSS .
OUT: 0.903

IN: Now consider pgDD40-SZ-3 (VHH, not shown: small tags and cut ends) VHH: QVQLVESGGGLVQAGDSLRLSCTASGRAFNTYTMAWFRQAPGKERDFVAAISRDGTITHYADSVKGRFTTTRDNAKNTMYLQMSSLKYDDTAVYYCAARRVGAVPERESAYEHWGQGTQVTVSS .
OUT: 1.02

IN: Now consider pgDD40-SZ-5 (VHH, not shown: small tags and cut ends) VHH: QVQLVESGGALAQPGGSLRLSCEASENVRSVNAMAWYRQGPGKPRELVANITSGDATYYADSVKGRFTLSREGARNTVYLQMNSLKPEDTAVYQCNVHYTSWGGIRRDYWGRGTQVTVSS .
OUT: 0.85

IN: Now consider pgDD40-SZ-7 (VHH, not shown: small tags and cut ends) VHH: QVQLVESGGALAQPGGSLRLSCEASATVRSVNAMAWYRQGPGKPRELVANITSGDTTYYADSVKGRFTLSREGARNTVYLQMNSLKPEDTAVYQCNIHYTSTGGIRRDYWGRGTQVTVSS .
OUT: 1.01

IN: Now consider pgDD40-HZ-15 (VHH, not shown: small tags and cut ends) VHH: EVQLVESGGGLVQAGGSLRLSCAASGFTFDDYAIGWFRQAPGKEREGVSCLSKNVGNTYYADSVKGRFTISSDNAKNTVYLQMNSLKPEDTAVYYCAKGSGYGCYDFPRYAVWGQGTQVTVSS .
OUT: 0.062

IN: Now consider pgDD40-HZ-28 (VHH, not shown: small tags and cut ends) VHH: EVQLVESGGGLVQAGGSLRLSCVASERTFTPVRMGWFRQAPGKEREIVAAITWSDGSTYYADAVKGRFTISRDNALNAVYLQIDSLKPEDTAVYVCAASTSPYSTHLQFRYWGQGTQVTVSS .
OUT: 0.062

IN: Now consider pgDD40-SZ-12 (VHH, not shown: small tags and cut ends) VHH: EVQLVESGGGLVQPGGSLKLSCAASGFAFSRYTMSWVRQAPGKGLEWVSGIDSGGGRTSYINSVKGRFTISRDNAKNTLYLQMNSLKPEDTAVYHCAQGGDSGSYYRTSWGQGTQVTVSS .
OUT: 0.061

IN: Now consider pgDD40-SZ-2 (VHH, not shown: small tags and cut ends) VHH: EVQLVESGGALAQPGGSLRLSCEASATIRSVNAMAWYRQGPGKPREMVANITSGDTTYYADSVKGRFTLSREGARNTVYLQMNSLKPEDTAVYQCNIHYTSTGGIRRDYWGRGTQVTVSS .
OUT: 0.94
